Test system: human Factor Xa (Homo sapiens, UniProt P00742)
Sequence (P00742 235-488 limits assumed): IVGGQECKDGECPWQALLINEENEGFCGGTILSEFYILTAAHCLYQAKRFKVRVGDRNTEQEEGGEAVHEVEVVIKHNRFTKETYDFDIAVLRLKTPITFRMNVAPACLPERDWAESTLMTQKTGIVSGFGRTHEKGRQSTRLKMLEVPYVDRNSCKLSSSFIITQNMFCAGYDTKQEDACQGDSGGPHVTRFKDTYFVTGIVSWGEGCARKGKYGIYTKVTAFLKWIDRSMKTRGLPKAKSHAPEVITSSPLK
Sequence (P00742 41-179 partner limits assumed): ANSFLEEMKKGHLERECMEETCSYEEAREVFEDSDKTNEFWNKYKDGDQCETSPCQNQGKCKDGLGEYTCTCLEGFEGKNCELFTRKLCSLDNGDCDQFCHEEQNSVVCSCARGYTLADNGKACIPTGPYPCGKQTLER
Measured property: IC50

Item CCCCCC(=O)OCC1OC(OC2CC3C(O)C4(C2)OC(=O)NC4C(C(=O)NCCC2=CCN(C(=N)N)C2)N3C(=O)C(NC(=O)C(COS(=O)(=O)O)OC)C(C)CC)C(OC(=O)CCCCC)C(O)C1O (stereo not shown) [suomilide] was tested on human Factor Xa (Homo sapiens, UniProt P00742); the reported IC50 is 114 nM

---

Test system: human plasmin (Homo sapiens, UniProt P00747)
Sequence (P00747 581-810 limits assumed): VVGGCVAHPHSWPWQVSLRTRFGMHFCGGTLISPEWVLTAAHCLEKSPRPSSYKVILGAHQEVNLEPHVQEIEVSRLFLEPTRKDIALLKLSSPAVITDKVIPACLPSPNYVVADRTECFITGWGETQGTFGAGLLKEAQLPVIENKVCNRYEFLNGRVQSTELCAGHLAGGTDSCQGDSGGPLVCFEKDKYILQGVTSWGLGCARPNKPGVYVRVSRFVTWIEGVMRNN
Sequence (P00747 97-580 partner limits assumed): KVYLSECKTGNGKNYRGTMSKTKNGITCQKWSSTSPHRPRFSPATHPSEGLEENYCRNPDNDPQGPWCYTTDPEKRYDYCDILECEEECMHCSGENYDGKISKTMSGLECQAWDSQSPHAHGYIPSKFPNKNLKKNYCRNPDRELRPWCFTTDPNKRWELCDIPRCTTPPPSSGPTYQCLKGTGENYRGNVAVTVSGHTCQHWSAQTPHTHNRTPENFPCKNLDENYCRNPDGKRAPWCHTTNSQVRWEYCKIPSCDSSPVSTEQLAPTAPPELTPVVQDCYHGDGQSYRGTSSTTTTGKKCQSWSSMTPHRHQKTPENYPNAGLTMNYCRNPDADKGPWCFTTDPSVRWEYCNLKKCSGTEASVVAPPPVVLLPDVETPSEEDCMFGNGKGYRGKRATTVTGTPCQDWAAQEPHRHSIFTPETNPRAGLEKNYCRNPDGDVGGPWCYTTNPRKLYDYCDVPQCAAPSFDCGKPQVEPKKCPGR
Measured property: pIC50
Keep in mind that pIC50 stands for -log10 of concentration in molar terms.

Item CCCCCC(=O)OCC1OC(OC2CC3C(O)C4(C2)OC(=O)NC4C(C(=O)NCCC2=CCN(C(=N)N)C2)N3C(=O)C(NC(=O)C(COS(=O)(=O)O)OC)C(C)CC)C(OC(=O)CCCCC)C(O)C1O (stereo not shown) [suomilide] was tested on human plasmin (Homo sapiens, UniProt P00747); the reported pIC50 is 8.12

---

Test system: human plasma kallikrein (Homo sapiens, UniProt P03952)
Sequence (P03952 391-638 limits assumed): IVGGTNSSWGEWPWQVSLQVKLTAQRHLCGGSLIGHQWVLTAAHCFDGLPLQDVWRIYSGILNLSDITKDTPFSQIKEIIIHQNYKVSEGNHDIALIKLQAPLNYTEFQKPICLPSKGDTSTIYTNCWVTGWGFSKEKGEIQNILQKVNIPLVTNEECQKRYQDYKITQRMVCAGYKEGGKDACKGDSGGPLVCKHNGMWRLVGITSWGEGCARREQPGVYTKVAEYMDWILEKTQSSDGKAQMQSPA
Sequence (P03952 20-390 partner limits assumed): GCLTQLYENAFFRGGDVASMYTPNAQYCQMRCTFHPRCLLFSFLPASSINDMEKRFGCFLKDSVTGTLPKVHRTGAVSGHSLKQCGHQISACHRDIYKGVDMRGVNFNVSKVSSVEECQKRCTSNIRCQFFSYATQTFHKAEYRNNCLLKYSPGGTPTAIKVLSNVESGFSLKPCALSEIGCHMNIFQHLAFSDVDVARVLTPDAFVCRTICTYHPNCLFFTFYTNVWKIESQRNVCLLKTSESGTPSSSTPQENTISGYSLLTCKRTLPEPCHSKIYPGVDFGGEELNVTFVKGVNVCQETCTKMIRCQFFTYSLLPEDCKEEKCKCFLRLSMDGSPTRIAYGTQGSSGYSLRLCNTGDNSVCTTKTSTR
Test name: Serine protease inhibition, chromogenic substrate S-2302
Run parameters: read-out: IC50, human plasma kallikrein
Measured property: pIC50
Keep in mind that pIC50 stands for -log10 of concentration in molar terms.

Item CCCCCC(=O)OCC1OC(OC2CC3C(O)C4(C2)OC(=O)NC4C(C(=O)NCCC2=CCN(C(=N)N)C2)N3C(=O)C(NC(=O)C(COS(=O)(=O)O)OC)C(C)CC)C(OC(=O)CCCCC)C(O)C1O (stereo not shown) [suomilide] was tested on human plasma kallikrein (Homo sapiens, UniProt P03952); the reported pIC50 is 7.09

---

Test system: trypsin-1 (Homo sapiens, UniProt P07477)
Measured property: pIC50
Keep in mind that pIC50 stands for -log10 of concentration in molar terms.

Record CCCCCC(=O)OCC1OC(OC2CC3C(O)C4(C2)OC(=O)NC4C(C(=O)NCCC2=CCN(C(=N)N)C2)N3C(=O)C(NC(=O)C(COS(=O)(=O)O)OC)C(C)CC)C(OC(=O)CCCCC)C(O)C1O (stereo not shown) [suomilide] , field pIC50: 6.98

---

Test system: trypsin-3 (Homo sapiens, UniProt P35030)
Sequence (P35030 81-304 limits assumed): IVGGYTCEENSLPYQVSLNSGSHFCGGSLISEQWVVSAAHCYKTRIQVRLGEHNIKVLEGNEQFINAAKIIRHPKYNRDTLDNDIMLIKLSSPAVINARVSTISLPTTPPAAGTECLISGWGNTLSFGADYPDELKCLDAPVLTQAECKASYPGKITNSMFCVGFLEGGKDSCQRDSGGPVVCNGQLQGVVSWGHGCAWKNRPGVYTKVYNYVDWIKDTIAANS
Measured property: pIC50
Keep in mind that pIC50 stands for -log10 of concentration in molar terms.

Record CCCCCC(=O)OCC1OC(OC2CC3C(O)C4(C2)OC(=O)NC4C(C(=O)NCCC2=CCN(C(=N)N)C2)N3C(=O)C(NC(=O)C(COS(=O)(=O)O)OC)C(C)CC)C(OC(=O)CCCCC)C(O)C1O (stereo not shown) [suomilide] , field pIC50: 7.94

---

Test system: recombinant human trypsin-2 (Homo sapiens, UniProt P07478)
Sequence (P07478 24-247): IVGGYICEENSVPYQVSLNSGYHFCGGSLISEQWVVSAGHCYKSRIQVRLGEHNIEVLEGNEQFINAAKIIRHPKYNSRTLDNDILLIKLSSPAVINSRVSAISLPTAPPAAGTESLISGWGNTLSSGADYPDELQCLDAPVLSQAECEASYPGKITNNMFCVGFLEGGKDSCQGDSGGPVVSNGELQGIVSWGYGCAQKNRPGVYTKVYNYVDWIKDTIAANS
Test name: Serine protease inhibition, chromogenic substrate S-2222
Run parameters: read-out: IC50, trypsin-2; 30 min preincubation, substrate S-2222, n = 3
Measured property: pIC50
Keep in mind that pIC50 stands for -log10 of concentration in molar terms.

Record CCCCCC(=O)OCC1OC(OC2CC3C(O)C4(C2)OC(=O)NC4C(C(=O)NCCC2=CCN(C(=N)N)C2)N3C(=O)C(NC(=O)C(COS(=O)(=O)O)OC)C(C)CC)C(OC(=O)CCCCC)C(O)C1O (stereo not shown) [suomilide] , field pIC50: 8.33

---

Test system: human thrombin (Homo sapiens, UniProt P00734)
Measured property: IC50

Item CCCCCC(=O)OCC1OC(OC2CC3C(O)C4(C2)OC(=O)NC4C(C(=O)NCCC2=CCN(C(=N)N)C2)N3C(=O)C(NC(=O)C(COS(=O)(=O)O)OC)C(C)CC)C(OC(=O)CCCCC)C(O)C1O (stereo not shown) [suomilide] was tested on human thrombin (Homo sapiens, UniProt P00734); the reported IC50 is > 12.5 µM
